tested on: NCI-H196 complex spheroids with HUVEC/MSC, growth % T/C; test: Anticancer human tumor NCI-H196 cell line growth inhibition [Asc]; details: second compound 1 µM; first compound 0.01 µM; stronger effect = lower value;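 further: spheroids exposed to compound for 7 days before measurement; 100% = DMSO vehicle control wells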
quantity: viability, T/C (%)
Reply with just the number (in %).

Supply measured viability, T/C of Cn1ncnc1[C@H]1c2n[nH]c(=O)c3cc(F)cc(c23)N[C@@H]1c1ccc(F)cc1 + CNC(C)C(=O)NC1CN(S(=O)(=O)c2cccc(S(=O)(=O)N3CCC4CCC(C(=O)NC(c5ccccc5)c5ccccc5)N4C(=O)C(NC(=O)C(C)NC)C3)c2)CCC2CCC(C(=O)NC(c3ccccc3)c3ccccc3)N2C1=O in your reply.
3

Supply measured viability, T/C of CCN1CCN(Cc2ccc(Nc3ncc(F)c(-c4cc(F)c5nc(C)n(C(C)C)c5c4)n3)nc2)CC1 + CNC(C)C(=O)NC1CN(S(=O)(=O)c2cccc(S(=O)(=O)N3CCC4CCC(C(=O)NC(c5ccccc5)c5ccccc5)N4C(=O)C(NC(=O)C(C)NC)C3)c2)CCC2CCC(C(=O)NC(c3ccccc3)c3ccccc3)N2C1=O in your reply.
3.75

Supply measured viability, T/C of Cn1ncnc1[C@H]1c2n[nH]c(=O)c3cc(F)cc(c23)N[C@@H]1c1ccc(F)cc1 + Cc1c(S(C)(=O)=O)c(-c2cc(F)cc(N3CCN(c4ccc(NS(=O)(=O)c5ccc(NC(CCN6CCC(C(=O)OCCCP(=O)(O)O)CC6)CSc6ccccc6)c(S(=O)(=O)C(F)(F)F)c5)cc4)CC3)c2)c(-c2ccc(Cl)cc2)n1C(C)C in your reply.
95.7

These entries and their values trace back to PubChem BioAssay AID1963439.
